The measured values listed here are drawn from patent US20070117743A1.

Reported CC50 values for a set of compounds
system: PANC-1; experiment: SRB colorimetric assay of cell growth and viability, PANC-1; assay type: cell-based, human; conditions: 48 hours exposure; read-out: LC50 PANC-1
Where a SMILES comes first, the peptide text is derived from it. Bridges are numbered along the chain shown (N, C = ends). [ ]: non-standard residue; d: D form. The star is where a group is joined. d(aIle) = CC[C@H](C)[C@@H](N)C(=O)O; d(aThr) = C[C@@H](O)[C@@H](N)C(=O)O; Hexanoyl(5-Me) = CC(C)CCCC(=O)*; Dhb = C/C=C(\N)C(=O)O
// note: answer is a bare numeric in µM

See these solved cases before continuing.
- C/C=C1\NC(=O)[C@H](Cc2ccccc2)NC(=O)[C@@H](C(C)C)NC(=O)[C@@H]([C@@H](C)CC)NC(=O)[C@H](NC(=O)[C@H](NC(=O)[C@H](CCC(=O)O)NC(=O)[C@H]2CCCN2C(=O)[C@H](NC(=O)[C@@H](NC(=O)[C@@H](NC(=O)[C@H](NC(=O)CCCC(C)C)C(C)C)[C@@H](C)O)C(C)C)C(C)C)[C@@H](C)CC)[C@@H](C)OC(=O)[C@H](C(C)C)NC1=O [Compound 4, [Glu^8]-KF] ({Hexanoyl(5-Me)}-[dV]TV[dV][dP]E[d(aIle)][d(aThr)][d(aIle)][dV]F[Dhb]V; ester 8-C): 6.6
- C/C=C1\NC(=O)[C@H](Cc2ccccc2)NC(=O)[C@@H](C(C)C)NC(=O)[C@@H]([C@@H](C)CC)NC(=O)[C@H](NC(=O)[C@H](NC(=O)[C@H](CCCN)NC(=O)[C@H]2CCCN2C(=O)[C@H](NC(=O)[C@@H](NC(=O)[C@@H](NC(=O)[C@H](NC(=O)c2ccccc2)C(C)C)[C@@H](C)O)C(C)C)C(C)C)[C@@H](C)CC)[C@@H](C)OC(=O)[C@H](C(C)C)NC1=O [Compound 20, [Bza^14]-KF]: 6.8

Request: // fetch CC50 given entry C/C=C1\NC(=O)[C@H](Cc2ccccc2)NC(=O)[C@@H](C(C)C)NC(=O)[C@@H]([C@@H](C)CC)NC(=O)[C@H](NC(=O)[C@H](NC(=O)[C@H](CCCN)NC(=O)[C@H]2CCCN2C(=O)[C@H](NC(=O)[C@@H](NC(=O)[C@@H](NC(=O)[C@H](NC(=O)Cc2cc(F)cc(F)c2)C(C)C)[C@@H](C)O)C(C)C)C(C)C)[C@@H](C)CC)[C@@H](C)OC(=O)[C@H](C(C)C)NC1=O [Compound 22, [3,5-dFPhAc^14]-KF]
Result: 6.58
